- target-system: Eukaryotic translation initiation factor 4E (Homo sapiens)
- assay-explanation: Inhibition of eIF4E binding to m7GDP in immobilized resin with HEK293 lysate at 500 uM by western blot analysis based competitive binding assay
- Assay type: subcellular
- condition-details: time 12.0 hrs
The source made the active and inactive calls. No cut-off for these calls is given here.
Please reply with one of these outcomes: active, inactive

Example cases with answers are listed next.
Nc1nc2c(c(=O)[nH]1)[n+](Cc1ccc(F)cc1)cn2[C@@H]1O[C@H](COP(=O)(O)OP(=O)(O)NCCOCCOCCOCCOCCOCCOCCOCCC(=O)Nc2cccc3c2CN(C2CCC(=O)NC2=O)C3=O)[C@@H](O)[C@H]1O (stereo partly drawn): active
Nc1nc2c(ncn2[C@@H]2O[C@H](COP(=O)(O)OP(=O)(O)NCCOCCOCCOCCC(=O)Nc3cccc4c3CN(C3CCC(=O)NC3=O)C4=O)[C@@H](O)[C@H]2O)c(=O)[nH]1 (stereo partly drawn): inactive

Okay, now this compound:
**Q:** // param item: Nc1nc2c(ncn2[C@@H]2O[C@H](COP(=O)(O)OP(=O)(O)NCCCCCC(=O)Nc3cccc4c3CN(C3CCC(=O)NC3=O)C4=O)[C@@H](O)[C@H]2O)c(=O)[nH]1 (stereo partly drawn) ; yields the recorded call
**A:** inactive
